Biological target: PICK1 (Rattus norvegicus, UniProt Q9EP80)
Construct: Full length rat PICK1 (pET41) was prepared as described earlier; inferred from pET41 and glutathione-Sepharose capture) (N, cleaved yes); made in house; host or cells: E. coli BL21-DE3-pLysS
Sequence (Q9EP80 whole entry): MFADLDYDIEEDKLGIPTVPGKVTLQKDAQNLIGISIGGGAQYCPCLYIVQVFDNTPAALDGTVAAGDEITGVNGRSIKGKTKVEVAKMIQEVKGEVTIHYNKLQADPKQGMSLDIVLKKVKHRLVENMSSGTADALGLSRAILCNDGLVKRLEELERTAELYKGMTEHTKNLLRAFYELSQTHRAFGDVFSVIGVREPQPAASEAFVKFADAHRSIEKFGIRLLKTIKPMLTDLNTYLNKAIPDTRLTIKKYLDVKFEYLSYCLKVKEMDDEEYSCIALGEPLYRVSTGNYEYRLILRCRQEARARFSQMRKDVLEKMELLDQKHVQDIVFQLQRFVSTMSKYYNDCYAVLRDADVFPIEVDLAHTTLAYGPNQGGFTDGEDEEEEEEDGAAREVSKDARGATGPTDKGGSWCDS
Assay: Fluorescence polarization competition of HWLKV substitution peptide libraries (Example 6)
Assay type: binding
Details: relative to HWLKV, tracer 5FAM-HWLKV 20 nM, FIG. 7, in words
quantity kind: Fold affinity change of combinatorial peptide library

| substance | readout value |
| --- | --- |
| TSIRV (DAT C5 VARIANT) | optimal 5-mer sequences |
| NSVRV (DAT C5 VARIANT) | optimal 5-mer sequences |
| EIRV (DAT C5 VARIANT) | optimal 4-mer sequences |
| YIIV (DAT C5 VARIANT) | optimal 4-mer sequences |
